meta.source: the kinase profiling compilation of Christmann-Franck et al. (2016)

- target_of_assay: STK38 (human) (UniProt Q15208)
- Sequence (Q15208 whole entry, looked up): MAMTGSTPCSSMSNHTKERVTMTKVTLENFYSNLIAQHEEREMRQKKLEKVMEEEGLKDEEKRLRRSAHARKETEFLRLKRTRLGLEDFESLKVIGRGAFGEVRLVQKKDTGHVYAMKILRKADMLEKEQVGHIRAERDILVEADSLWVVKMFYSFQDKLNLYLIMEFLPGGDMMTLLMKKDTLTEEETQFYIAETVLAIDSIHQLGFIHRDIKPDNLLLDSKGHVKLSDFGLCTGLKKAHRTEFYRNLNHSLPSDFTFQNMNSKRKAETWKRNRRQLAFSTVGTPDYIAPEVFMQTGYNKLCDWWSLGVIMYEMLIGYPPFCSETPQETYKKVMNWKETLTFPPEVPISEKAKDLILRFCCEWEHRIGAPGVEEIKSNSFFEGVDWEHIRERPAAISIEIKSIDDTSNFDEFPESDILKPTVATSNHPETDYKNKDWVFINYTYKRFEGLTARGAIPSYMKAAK
- assay_procedure: KINOMEscan competition binding
- condition_parameters: compound 10.0 µM
kinase still bound, per cent of control: recorded values

[[record]]
smiles_code = "COc1cc2c(Nc3ccc(NC(=O)c4ccccc4)cc3)ncnc2cc1OCCCN1CCOCC1"
target_of_assay = "STK38 (human) (UniProt Q15208)"
result = "92%"

[[record]]
smiles_code = "CCOc1cc(N2CCC(O)CC2)ccc1Nc1ncc2c(n1)N(C)c1ccccc1C(=O)N2C"
target_of_assay = "STK38 (human) (UniProt Q15208)"
result = "100%"

[[record]]
smiles_code = "CC(=O)c1c(C)c2cnc(Nc3ccc(N4CCNCC4)cn3)nc2n(C2CCCC2)c1=O"
target_of_assay = "STK38 (human) (UniProt Q15208)"
result = "57%"

[[record]]
smiles_code = "O=c1[nH]c2ccccc2n1C1CCN(Cc2ccc(-c3nc4cc5[nH]cnc5cc4nc3-c3ccccc3)cc2)CC1"
target_of_assay = "STK38 (human) (UniProt Q15208)"
result = "62%"

[[record]]
smiles_code = "N#Cc1cc(-c2ccnc(Nc3ccc(-n4cnc(-c5cccnc5)n4)cc3)n2)cc(N2CCOCC2)c1"
target_of_assay = "STK38 (human) (UniProt Q15208)"
result = "92%"


In the following, a different compound is considered.
Qu. kinase still bound, per cent of control for CCN(CCO)CCCOc1ccc2c(Nc3cc(CC(=O)Nc4cccc(F)c4)[nH]n3)ncnc2c1 ?
Ans. 56%

###

- target_of_assay: DMPK (human)
- assay_procedure: KINOMEscan competition binding
- condition_parameters: compound 10.0 µM
kinase still bound, per cent of control: recorded values
Give your result in % as a bare value.

// solved cases for kinase still bound, per cent of control follow
[[record]]
compound = "CCCS(=O)(=O)Nc1ccc(F)c(C(=O)c2c[nH]c3ncc(Cl)cc23)c1F"
property = "kinase still bound, per cent of control"
measurement_units = "%"
numeric_readout = 100

[[record]]
compound = "O=c1[nH]c2ccccc2n1C1CCN(Cc2ccc(-c3nc4cc5[nH]cnc5cc4nc3-c3ccccc3)cc2)CC1"
property = "kinase still bound, per cent of control"
measurement_units = "%"
numeric_readout = 98

[[record]]
compound = "COc1cc(C)c(Sc2cnc(NC(=O)c3ccc(CNC(C)C(C)C)cc3)s2)cc1C(=O)N1CCN(C(C)=O)CC1 (stereo not drawn)"
property = "kinase still bound, per cent of control"
measurement_units = "%"
numeric_readout = 100


In the following, a different compound is considered.
Qu. kinase still bound, per cent of control for CNC(=O)Nc1ccc(-c2nc(N3CC4CCC(C3)O4)c3cnn(C4CCC5(CC4)OCCO5)c3n2)cc1 ?
Ans. 83

###

kinase still bound, per cent of control: recorded values
- target_of_assay: CSNK2A2 (human) (UniProt P19784)
- Sequence (P19784 whole entry, looked up): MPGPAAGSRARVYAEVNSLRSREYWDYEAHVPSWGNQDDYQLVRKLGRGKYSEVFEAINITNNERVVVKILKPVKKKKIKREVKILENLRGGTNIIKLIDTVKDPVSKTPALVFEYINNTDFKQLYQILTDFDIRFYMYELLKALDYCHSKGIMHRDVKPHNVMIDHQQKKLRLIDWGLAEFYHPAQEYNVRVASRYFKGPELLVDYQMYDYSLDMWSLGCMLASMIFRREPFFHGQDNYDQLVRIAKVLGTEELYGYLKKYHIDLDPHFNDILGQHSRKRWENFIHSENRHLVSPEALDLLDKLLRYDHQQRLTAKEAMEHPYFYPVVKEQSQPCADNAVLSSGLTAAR
- assay_procedure: KINOMEscan competition binding
- condition_parameters: compound 10.0 µM
Give your result in % as a bare value.

// solved cases for kinase still bound, per cent of control follow
[[record]]
compound = "Cc1cn(-c2cc(C(=O)Nc3ccc(C)c(NC(=O)c4ccno4)c3)cc(C(F)(F)F)c2)cn1"
property = "kinase still bound, per cent of control"
numeric_readout = 100

[[record]]
compound = "COc1ccc(N(C(=O)Oc2cc(C(=O)Nc3cccc(C(F)(F)F)c3)ccc2C)c2ccnc(Nc3ccc(N4CCN(C)CC4)cc3)n2)c(OC)c1"
property = "kinase still bound, per cent of control"
numeric_readout = 100

[[record]]
compound = "CCCS(=O)(=O)Nc1ccc(F)c(C(=O)c2c[nH]c3ncc(Cl)cc23)c1F"
property = "kinase still bound, per cent of control"
numeric_readout = 12

[[record]]
compound = "CC(=O)c1c(C)c2cnc(Nc3ccc(N4CCNCC4)cn3)nc2n(C2CCCC2)c1=O"
property = "kinase still bound, per cent of control"
numeric_readout = 0.65

[[record]]
compound = "C=CC(=O)Nc1ccc(C(=O)c2sc(Nc3ccc(N4CCN(C)CC4)cc3OC)nc2N)cc1"
property = "kinase still bound, per cent of control"
numeric_readout = 37


In the following, a different compound is considered.
Qu. kinase still bound, per cent of control for CCN1CCN(Cc2ccc(NC(=O)c3ccc(C)c(/C=C/c4cnc5[nH]ccc5c4OC)c3)cc2C(F)(F)F)CC1 ?
Ans. 95
